# MEASURED TARGET: human TLR8 (Homo sapiens, UniProt Q9NR97)
# Construct: host or cells: HEK-Blue 293 cells expressing human TLR8
# Sequence (Q9NR97 27-1041): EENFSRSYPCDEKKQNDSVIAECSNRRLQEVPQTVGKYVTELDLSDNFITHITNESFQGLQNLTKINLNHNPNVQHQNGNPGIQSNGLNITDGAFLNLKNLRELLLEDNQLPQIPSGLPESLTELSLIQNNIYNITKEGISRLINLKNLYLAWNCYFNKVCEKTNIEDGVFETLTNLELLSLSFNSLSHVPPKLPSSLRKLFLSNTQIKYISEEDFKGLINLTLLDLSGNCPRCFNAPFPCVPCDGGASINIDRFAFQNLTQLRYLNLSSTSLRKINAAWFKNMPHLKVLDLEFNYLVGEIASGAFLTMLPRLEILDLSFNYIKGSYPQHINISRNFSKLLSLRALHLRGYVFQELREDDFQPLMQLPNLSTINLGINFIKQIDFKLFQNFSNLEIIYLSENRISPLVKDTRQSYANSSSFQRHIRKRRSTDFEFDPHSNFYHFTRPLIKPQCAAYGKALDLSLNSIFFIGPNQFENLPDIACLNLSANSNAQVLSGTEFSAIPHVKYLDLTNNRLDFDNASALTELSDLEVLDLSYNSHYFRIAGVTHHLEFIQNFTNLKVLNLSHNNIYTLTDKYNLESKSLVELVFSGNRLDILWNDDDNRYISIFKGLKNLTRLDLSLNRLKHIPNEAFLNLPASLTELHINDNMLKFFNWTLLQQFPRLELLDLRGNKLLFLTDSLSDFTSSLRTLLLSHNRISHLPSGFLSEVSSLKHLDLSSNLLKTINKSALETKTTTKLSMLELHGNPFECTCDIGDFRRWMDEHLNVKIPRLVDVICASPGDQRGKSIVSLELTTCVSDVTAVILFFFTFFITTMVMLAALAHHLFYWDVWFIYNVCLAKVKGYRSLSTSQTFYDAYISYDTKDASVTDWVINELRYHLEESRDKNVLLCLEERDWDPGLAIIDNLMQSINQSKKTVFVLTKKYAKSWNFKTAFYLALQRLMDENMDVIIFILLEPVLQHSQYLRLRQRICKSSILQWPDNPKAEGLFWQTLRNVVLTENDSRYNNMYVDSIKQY
# ASSAY NOTES: Cell-based TLR 7/8 assay, HEK-Blue TLR8 cells (SEAP reporter)
# COND: based on Compound concentration only; Compounds formulated as SNEs; read-out: huTLR8 EC50 (converted)
VALUE TYPE: EC50 (nM)
// note: answer is a bare numeric in nM

Consider the following illustrative entries.
                         structure_notation                           measured_target  observed_measurement
0  CCCCCCCCCCCCCCCCCC(=O)NCCCCC(=O)N1CCN(c2ccc(Cn3nc4c(NCCCC)nc(N)nc4c3C)c(OC)c2)CC1  human TLR8 (Homo sapiens, UniProt Q9NR97)                   215
1  CCCCC/C=C\C/C=C\CCCCCCCC(=O)NCCCCN(C)Cc1cc(OC)c(Cn2cc3nc(N)nc(NCCCC)c3n2)c(OC)c1  human TLR8 (Homo sapiens, UniProt Q9NR97)                  95.5
2  CCCCCCCCCCCCCCCCCC(=O)NCCCCC(=O)N1CCN(c2ccc(Cn3cc4nc(N)nc(NCCCC)c4n3)c(OC)c2)CC1  human TLR8 (Homo sapiens, UniProt Q9NR97)                   554
3  CCCCCCCCCCCCCC(=O)NCCCCC(=O)N1CCN(c2ccc(Cn3cc4nc(N)nc(NCCCC)c4n3)c(OC)c2)CC1  human TLR8 (Homo sapiens, UniProt Q9NR97)                   306
4  CCCCCCCCCCCCCCCCCC(=O)NCCCNC(=O)N1CCN(c2ccc(Cn3cc4nc(N)nc(NCCCC)c4n3)c(OC)c2)CC1  human TLR8 (Homo sapiens, UniProt Q9NR97)                  5820

Consider now this further compound.
Please list EC50 recorded for the compound CCCCCCCCCCCCCCCCCC(=O)NCCCCCCC(=O)N1CCN(c2ccc(Cn3cc4nc(N)nc(NCCCC)c4n3)c(OC)c2)CC1
25500

---

# MEASURED TARGET: human TLR8 (Homo sapiens)
# Construct: host or cells: HEK-Blue 293 cells expressing human TLR8
# Sequence (Q9NR97 27-1041): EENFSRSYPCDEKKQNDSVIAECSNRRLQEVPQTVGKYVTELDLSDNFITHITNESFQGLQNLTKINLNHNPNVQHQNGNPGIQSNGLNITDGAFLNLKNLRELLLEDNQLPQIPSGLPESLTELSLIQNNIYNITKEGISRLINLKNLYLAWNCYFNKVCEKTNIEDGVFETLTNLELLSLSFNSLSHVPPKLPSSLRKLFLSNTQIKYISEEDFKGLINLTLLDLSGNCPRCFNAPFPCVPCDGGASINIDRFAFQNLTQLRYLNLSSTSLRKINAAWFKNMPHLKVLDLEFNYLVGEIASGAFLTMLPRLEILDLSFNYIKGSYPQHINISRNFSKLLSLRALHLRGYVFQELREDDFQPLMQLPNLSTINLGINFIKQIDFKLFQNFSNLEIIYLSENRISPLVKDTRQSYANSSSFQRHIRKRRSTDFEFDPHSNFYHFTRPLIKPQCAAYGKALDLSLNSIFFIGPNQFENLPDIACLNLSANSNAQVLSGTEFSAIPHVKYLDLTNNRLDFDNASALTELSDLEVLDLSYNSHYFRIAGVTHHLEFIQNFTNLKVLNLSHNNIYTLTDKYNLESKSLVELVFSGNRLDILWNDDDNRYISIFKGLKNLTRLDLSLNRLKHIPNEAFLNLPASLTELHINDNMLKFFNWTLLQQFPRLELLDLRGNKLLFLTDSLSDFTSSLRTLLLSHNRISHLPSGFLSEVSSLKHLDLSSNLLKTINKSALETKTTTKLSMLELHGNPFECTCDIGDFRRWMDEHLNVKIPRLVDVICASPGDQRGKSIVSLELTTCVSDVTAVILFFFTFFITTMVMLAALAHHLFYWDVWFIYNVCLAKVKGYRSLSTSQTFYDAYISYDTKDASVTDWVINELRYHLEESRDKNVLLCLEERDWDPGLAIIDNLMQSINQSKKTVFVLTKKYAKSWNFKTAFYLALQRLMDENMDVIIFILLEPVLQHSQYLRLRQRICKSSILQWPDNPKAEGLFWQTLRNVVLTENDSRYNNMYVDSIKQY
# ASSAY NOTES: Cell-based TLR 7/8 assay, HEK-Blue TLR8 cells (SEAP reporter)
# COND: based on Compound concentration only; Compounds formulated as SNEs; read-out: huTLR8 EC50 (converted)
VALUE TYPE: EC50

Consider the following illustrative entries.
>>> df
                                   compound  value_type  observed_measurement
0  CCCCCCCCCCCCCCCCCC(=O)NCCCOC(=O)N1CCN(c2ccc(Cn3cc4nc(N)nc(NCCCC)c4n3)c(OC)c2)CC1 [Compound D-3]        EC50               13.8 µM
1  CCCCCCCCCCCCCCCCCC(=O)NCCCC(C)(C)C(=O)N1CCN(c2ccc(Cn3cc4nc(N)nc(NCCCC)c4n3)c(OC)c2)CC1 [Compound B-14]        EC50               11.9 µM

Consider now this further compound.
Please list EC50 recorded for the compound CCCCCCCCCCCCCCCCCC(=O)NCCC(=O)N1CCN(c2ccc(Cn3cc4nc(N)nc(NCCCC)c4n3)c(OC)c2)CC1 [Compound B-11]
0.401 µM

---

# MEASURED TARGET: human TLR8 (Homo sapiens, UniProt Q9NR97)
# Construct: host or cells: HEK-Blue 293 cells expressing human TLR8
# Sequence (Q9NR97 27-1041): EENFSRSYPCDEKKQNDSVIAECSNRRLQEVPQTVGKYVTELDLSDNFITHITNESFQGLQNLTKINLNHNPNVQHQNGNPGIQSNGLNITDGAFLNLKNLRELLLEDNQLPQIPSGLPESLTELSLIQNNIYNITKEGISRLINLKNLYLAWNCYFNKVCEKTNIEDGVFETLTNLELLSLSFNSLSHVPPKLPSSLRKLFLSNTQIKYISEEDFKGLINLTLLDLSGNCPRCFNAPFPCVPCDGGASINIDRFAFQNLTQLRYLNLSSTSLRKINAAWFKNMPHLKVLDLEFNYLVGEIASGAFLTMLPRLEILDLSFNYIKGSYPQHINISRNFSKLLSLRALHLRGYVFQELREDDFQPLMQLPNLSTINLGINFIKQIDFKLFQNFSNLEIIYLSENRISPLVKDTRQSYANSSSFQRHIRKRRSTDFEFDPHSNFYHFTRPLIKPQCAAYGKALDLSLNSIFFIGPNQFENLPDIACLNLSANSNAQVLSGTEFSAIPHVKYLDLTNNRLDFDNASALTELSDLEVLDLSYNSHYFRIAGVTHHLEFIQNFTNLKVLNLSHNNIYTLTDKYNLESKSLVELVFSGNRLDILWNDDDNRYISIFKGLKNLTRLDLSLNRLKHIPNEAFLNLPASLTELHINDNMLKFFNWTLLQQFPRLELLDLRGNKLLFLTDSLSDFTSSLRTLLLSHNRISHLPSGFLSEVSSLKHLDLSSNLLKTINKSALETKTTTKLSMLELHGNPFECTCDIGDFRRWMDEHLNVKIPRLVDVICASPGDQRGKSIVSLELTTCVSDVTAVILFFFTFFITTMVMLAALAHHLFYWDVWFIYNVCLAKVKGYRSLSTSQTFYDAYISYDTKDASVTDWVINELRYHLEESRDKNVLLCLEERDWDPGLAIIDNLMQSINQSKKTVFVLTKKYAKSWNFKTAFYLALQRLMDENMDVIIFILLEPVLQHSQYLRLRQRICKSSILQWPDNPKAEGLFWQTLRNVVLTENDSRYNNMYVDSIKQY
# ASSAY NOTES: Cell-based TLR 7/8 assay, HEK-Blue TLR8 cells (SEAP reporter)
# COND: based on Compound concentration only; Compounds formulated as SNEs; read-out: huTLR8 EC50 (converted)
Reported values of log10(EC50) for individual entries
Quick note: numbers are log10 of EC50, with nM as the unit.

In [3]: df
Out[3]:
                         structure_notation   value_type  observed_measurement
0  CCCCCCCCCCCCCC(=O)NCCCCN(C)Cc1cc(OC)c(Cn2cc3nc(N)nc(NCCCC)c3n2)c(OC)c1  log10(EC50)                  2.25
1  CCCCCCCCCCCCCCCCCC(=O)NCCCCC(=O)N1CCN(c2cc(OC)c(Cn3cc4nc(N)nc(NCCCC)c4n3)c(OC)c2)CC1  log10(EC50)                  3.73
2  CCCCCCCC/C=C\CCCCCCCC(=O)NCCCCC(=O)N1CCN(c2ccc(Cn3cc4nc(N)nc(NCCCC)c4n3)c(OC)c2)CC1  log10(EC50)                  2.11
3  CCCCCCCCCCCCCCCCNC(=O)[C@H]1C[C@@H](CC(=O)N2CCN(c3ccc(Cn4cc5nc(N)nc(NCCCC)c5n4)c(OC)c3)CC2)C1  log10(EC50)                  4.87
4  CCCCCCCCCCCCCCCCCC(=O)NCCCCC(=O)N1CCC(c2ccc(Cn3cc4nc(N)nc(NCCCC)c4n3)c(OC)c2)CC1  log10(EC50)                  3.41

Consider now this further molecule.
Please list log10(EC50) recorded for the molecule CCCCCCCCCCCCCCCCCC(=O)NCCCCC(=O)N1CCN(c2cc(OC)c(Cn3cc4nc(N)nc(N[C@H](CO)CCC)c4n3)c(OC)c2)CC1
2.66
